Target: UniProtKB P08037
Sequence (P08037 whole entry): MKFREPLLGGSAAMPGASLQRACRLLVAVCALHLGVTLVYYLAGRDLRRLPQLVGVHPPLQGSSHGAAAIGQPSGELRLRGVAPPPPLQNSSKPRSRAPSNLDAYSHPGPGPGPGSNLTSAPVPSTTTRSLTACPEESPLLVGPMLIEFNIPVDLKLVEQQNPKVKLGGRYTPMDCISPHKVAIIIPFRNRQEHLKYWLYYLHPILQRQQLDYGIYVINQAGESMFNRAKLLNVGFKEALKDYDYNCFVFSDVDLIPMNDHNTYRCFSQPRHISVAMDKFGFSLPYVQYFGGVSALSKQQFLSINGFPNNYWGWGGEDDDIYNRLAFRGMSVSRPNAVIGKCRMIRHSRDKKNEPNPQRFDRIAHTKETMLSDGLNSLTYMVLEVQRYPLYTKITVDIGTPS
Experiment: Inhibitory activity against bovine Beta-1,4-galactosyltransferase at 100 uM concentration
Give measured Rate for each item. Keep answers brief.
Give bare numbers, in %.

Study these solved cases before continuing.
CC(=O)N[C@H]1[C@H](OCc2ccccc2)O[C@H](CO)[C@@H](O)[C@@H]1O = 100
CC(=O)N[C@H]1[C@H](OCc2ccccc2)O[C@H](CO)[C@@H](NC(C)=O)[C@@H]1O = 2
CC(=O)N[C@H]1[C@H](OCc2ccccc2)O[C@H](CO)[C@@H](N)[C@@H]1O = 2

Would you be so kind as to report Rate for each listed record?
1. CC(=O)N[C@H]1[C@H](O)[C@@H](N)[C@H](OCc2ccccc2)O[C@@H]1CO
2. CC(=O)N[C@H]1[C@H](O)[C@@H](N=[N+]=[N-])[C@H](OCc2ccccc2)O[C@@H]1CO

Output:
1: 4; 2: 27
